- Test system: DIV30
- measurement_notes: qHTS profiling for inhibitors of Plasmodium falciparum proliferation (AID 504749); note: nearly all actives have a fitted effect of over 60% in size; note: potency is the fitted concentration of half-maximal effect
- measurement_conditions: P. falciparum in erythrocytes, SYBR Green DNA, 72 h; series mostly up to 28.7 µM
Inconclusive results are not listed. The source made the active and inactive calls. Calls come from the whole dose curve; as a rule, active = well fitted inhibition curve with a large enough effect; inconclusive = small, poorly fitted or top-dose-only effect; inactive = flat fitted curve, though single readings scatter.
value_type: Potency

Examples with answers:
> print(dat)
                                   molecule          reported
1  CNC1CCCN(c2c(F)cc3c(=O)c(C(=O)O)cn(C4CC4)c3c2OC)C1 (stereo not given)          inactive
2           NC(=O)N1c2ccccc2CC(=O)c2ccccc21          inactive
3          CCCCCCNC(=O)n1cc(F)c(=O)[nH]c1=O  13.5 µM (active)
4                   CC1=NN(c2ccccc2)C(=O)C1          inactive

Now look at this one.
Could you share which Potency value was measured for "C#CCN[C@@H]1CCc2ccccc21" ?
inactive

* * *

- measurement_notes: Quantitative High-Throughput drug screen in 47 multiple myeloma cell lines against the NCATS MIPE library collection: MOLP8_DSMZ cell viability assay (AID 1918977); note: nearly all actives have a fitted effect of over 45% in size; note: potency is the fitted concentration of half-maximal effect
- measurement_conditions: MOLP8 myeloma viability, CellTiter-Glo ATP luminescence, 48 h; series mostly up to 45.8 µM
- From the text: PI: Beverly A. Mock Ph.D. Laboratory of Cancer Biology and Genetics, Center for Cancer Research, National Cancer Institute, National Institute of Health, Bethesda, Maryland […] 5; Detector; 425V; Luminescence; Viewlux PerkinElmer. […] 1. […] Briefly, the corresponding myeloma cell lines were screened in 1,536-well plates with 500 cells, 5-uL per well for inhibition of cell viability (assessed by measuring ATP levels with CellTiterGlo). […]
Results filed as inconclusive are left out. Calls of active or inactive are those of the source. Calls follow the shape of the dose curve; as a rule, active = well fitted cell-killing curve with a large enough effect; inconclusive = small, poorly fitted or top-dose-only effect, or effect the other way; inactive = no such curve, though single readings can be large or run the other way.
value_type: Potency

Some molecules with recorded Potency:
> print(dat)
                                   molecule  value.type            reported
1  CCc1c2c(nc3ccc(OC(=O)N4CCC(N5CCCCC5)CC4)cc13)-c1cc3c(c(=O)n1C2)COC(=O)[C@]3(O)CC     Potency   0.148 µM (active)
2          CCCCCCNC(=O)n1cc(F)c(=O)[nH]c1=O     Potency    6.62 µM (active)
3  Nc1nc(F)nc2c1ncn2[C@@H]1O[C@H](CO)[C@@H](O)[C@@H]1O     Potency   0.166 µM (active)
4  CC(C)C[C@H](NC(=O)[C@H](CCc1ccccc1)NC(=O)CN1CCOCC1)C(=O)N[C@@H](Cc1ccccc1)C(=O)N[C@@H](CC(C)C)C(=O)[C@@]1(C)CO1     Potency  0.0019 µM (active)
5              NCCCC(O)(P(=O)(O)O)P(=O)(O)O     Potency            inactive

# Potency lookup, item "COc1cc2ncnc(Nc3cccc(Cl)c3)c2cc1OC"
20.9 µM (active)

Query: Potency; subject: COc1ccccc1OCC(O)COC(N)=O (stereo not given)
inactive

For the molecule "Oc1c(Cl)cc(Cl)c2cccnc12" , what Potency is on record?
11.8 µM (active)

What value of Potency has been recorded for this entry: "COc1nc(N)nc2c1ncn2[C@@H]1O[C@H](CO)[C@@H](O)[C@@H]1O"
inactive

What Potency value was documented for this molecule, "CCCN[C@H]1CCc2nc(N)sc2C1" ?
inactive

* * *

- measurement_notes: qHTS of pediatric cancer cell lines to identify multiple opportunities for drug repurposing: Confirmatory screen for SK-N-SH cells (AID 1347129);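 note: cells exposed to compound for 48 h before viability read; nearly all actives have a fitted effect of over 60% in size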; note: potency is the fitted concentration of half-maximal effect
- measurement_conditions: SK-N-SH neuroblastoma cell viability; series mostly up to 46.1 µM
Records with an inconclusive call do not appear. Activity calls are given as the source filed them. Calls come from the whole dose curve; as a rule, active = well fitted cell-killing curve with a large enough effect; inconclusive = small, poorly fitted or top-dose-only effect; inactive = flat fitted curve, though single readings scatter.
value_type: Potency

> print(dat)
                                   compound  value.type          reported
1  COc1cc2c(Nc3ccc(Br)cc3F)ncnc2cc1OCC1CCN(C)CC1     Potency  16.6 µM (active)
2  COc1cc2nc(N3CCCN(C)CC3)nc(NC3CCN(Cc4ccccc4)CC3)c2cc1OC     Potency  8.33 µM (active)
3                         Nc1[nH]c(=O)ncc1F     Potency          inactive
4  CC1CC2C3CCC4=CC(=O)C=C[C@]4(C)[C@@]3(F)[C@@H](O)C[C@]2(C)[C@@]1(O)C(=O)CO (stereo partly specified)     Potency          inactive
5   COC(=O)Nc1nc2ccc(C(=O)c3ccccc3)cc2[nH]1     Potency          inactive

GET /values?readout=Potency&item= "CCC(=O)O[C@]1(C(=O)CCl)[C@@H](C)C[C@H]2[C@@H]3CCC4=CC(=O)C=C[C@]4(C)[C@@]3(F)[C@@H](O)C[C@@]21C"
inactive

Recorded Potency of "CNNCc1ccc(C(=O)NC(C)C)cc1" , please.
inactive

Can you share its Potency? I mean this compound: "COc1nc(N)nc2c1ncn2[C@@H]1O[C@H](CO)[C@@H](O)[C@@H]1O"
inactive

Item under review: "COC(=O)Nc1nc2ccc(Sc3ccccc3)cc2[nH]1" . Reported Potency?
5.9 µM (active)

Can you look up the measured Potency of "CCCCOc1ccc(CC(=O)NO)cc1" for me?
inactive

If you can, please state the reported Potency value of "Nc1nc(N)nc(-c2cc(Cl)ccc2Cl)n1" .
inactive

* * *

- Tested on: CP215
- measurement_notes: qHTS profiling for inhibitors of Plasmodium falciparum proliferation (AID 504749); note: nearly all actives have a fitted effect of over 60% in size
- measurement_conditions: P. falciparum in erythrocytes, SYBR Green DNA, 72 h; series mostly up to 28.7 µM
Records with an inconclusive call do not appear. Activity calls are given as the source filed them. Calls follow the shape of the dose curve; as a rule, active = well fitted inhibition curve with a large enough effect; inconclusive = small, poorly fitted or top-dose-only effect; inactive = flat fitted curve, though single readings scatter.
Respond with a class label; see active, inactive

Some solved entries appear below for comparison.
> print(dat)
                                    compound  discrete.label
 1  C[C@@H](NCCCc1cccc(C(F)(F)F)c1)c1cccc2ccccc12          active
 2       CCN(C)C(=O)Oc1cccc([C@H](C)N(C)C)c1        inactive
 3  Nc1nc(N)c2nc(CNc3ccc(C(=O)NC(CCC(=O)O)C(=O)O)cc3)cnc2n1 (centres undefined)        inactive
 4                  CCCN[C@H]1CCc2nc(N)sc2C1        inactive
 5          Cc1noc(NS(=O)(=O)c2ccc(N)cc2)c1C        inactive
 6                    S=P(N1CC1)(N1CC1)N1CC1        inactive
 7  CCn1cc(C(=O)O)c(=O)c2cc(F)c(N3CCNCC3)cc21        inactive
 8  C[C@]12C=CC(=O)C=C1CC[C@@H]1[C@@H]2C(=O)C[C@@]2(C)[C@H]1CC[C@]2(O)C(=O)CO        inactive
 9                            NC(=O)c1cccnc1        inactive
10  COc1nc(N)nc2c1ncn2[C@@H]1O[C@H](CO)[C@@H](O)[C@@H]1O        inactive

Called result for "COc1cc(NS(=O)(=O)c2ccc(N)cc2)nc(OC)n1"
inactive

Test call, this compound: "CN(C)c1ccc(C(=C2C=CC(=[N+](C)C)C=C2)c2ccc(N(C)C)cc2)cc1"
active

Fill in: this test's call for CCOCC(O)COc1ccc(NC(=O)CC[S+](C)C)cc1 (centres undefined) is ___
inactive

Which outcome was entered for the compound "CC1=CC(=O)c2ccccc2C1=O" in this test?
inactive

Outcome logged for "Cc1ccnc2c1NC(=O)c1cccnc1N2C1CC1" in this assay:
inactive

Please state the recorded outcome for this compound: "O=S(=O)(O)CCS"
inactive

Tell me the recorded outcome of this test for "N=C(N)c1ccc(OCCCCCOc2ccc(C(=N)N)cc2)cc1" .
active

I'd appreciate the recorded outcome for CN(CCOc1ccc(CC2SC(=O)NC2=O)cc1)c1ccccn1 (centres undefined) from this test.
inactive

Test call, this compound: "CC(C)(Sc1cc(C(C)(C)C)c(O)c(C(C)(C)C)c1)Sc1cc(C(C)(C)C)c(O)c(C(C)(C)C)c1"
inactive

What outcome does the record of this test show for "CC(C)Cn1cnc2c(N)nc3ccccc3c21" ?
inactive

Which outcome was entered for the compound "CCOC(=O)c1ccc(OC(=O)CCCCCN=C(N)N)cc1" in this test?
inactive

* * *

- measurement_notes: Cell Viability - HUV-EC-C (AID 542);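 note: cells exposed to compound for 40 hours; nearly all actives have a fitted effect of over 35% in size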
- measurement_conditions: HUV-EC-C endothelial cell viability, qHTS; series mostly up to 92.2 µM
Results filed as inconclusive are left out. The source made the active and inactive calls. Calls follow the shape of the dose curve; as a rule, active = well fitted cell-killing curve with a large enough effect; inconclusive = small, poorly fitted or top-dose-only effect, or effect the other way; inactive = flat fitted curve, though single readings scatter.
Entry note: the call must match one of active, inactive

> print(dat)
                           structure.smiles  discrete.label
1  CC(=O)[C@H]1CC[C@H]2[C@@H]3CCC4=CC(=O)CC[C@]4(C)[C@H]3CC[C@]12C        inactive

What is the recorded call for this compound in the test? "CCc1cc(C(N)=S)ccn1"
inactive

Could you kindly confirm the outcome this assay logged for "Cc1ncc([N+](=O)[O-])n1CCO" ?
inactive

Test call for this compound, please: "O=C(N[C@H](CO)[C@H](O)c1ccc([N+](=O)[O-])cc1)C(Cl)Cl"
inactive

Hello, I am checking results. What call was entered for "NNC(=O)c1ccncc1" ?
inactive

Record request — test call for "CC(=O)Oc1ccccc1C(=O)Nc1ncc([N+](=O)[O-])s1"
active

What outcome does the record of this test show for "CC1=NN(c2ccccc2)C(=O)C1" ?
inactive
